target: PD-1/PD-L1 interaction (PD-1-Ig / PD-L1-His) (Homo sapiens (Human)); experiment: PD-1/PD-L1 Homogenous Time-Resolved Fluorescence (HTRF) binding assay; details: PD-1/PD-L1 HTRF binding assay; value given as range class; read-out: Range or IC50
pIC50: −log10 of the molar value.
outcome.measure: pIC50

Provide one value: measured pIC50 of "CC(=O)NCCNCc1ccc(OCc2cccc(-c3ccccc3)c2C)cc1OCCO"
4.70 to 7.00

Provide one value: measured pIC50 of "CC(=O)NCCNCc1ccc(OCc2cccc(-c3ccccc3)c2C)cc1OCc1ccccc1CO"
4.70 to 7.00

Provide one value: measured pIC50 of Cc1c(COc2ccc(CNC(CO)C(=O)O)c(OCc3cccc(C#N)c3)c2)cccc1-c1ccccc1 (centres unmarked)
8.00 to 9.22

Provide one value: measured pIC50 of "CC(=O)Nc1cc(COc2cc(OCc3cccc(-c4ccc5c(c4)OCCO5)c3C)c(Cl)cc2C=O)ccn1"
4.70 to 7.00

Provide one value: measured pIC50 of "C=Cc1cc(CNCCNC(C)=O)c(OCc2cccc(C#N)c2)cc1OCc1cccc(-c2ccc3c(c2)OCCO3)c1C"
8.00 to 9.22

Provide one value: measured pIC50 of "CC(=O)NCCNCc1cc(Br)c(OCc2cccc(-c3ccc4c(c3)OCCO4)c2C)cc1OCc1cccc(C#N)c1"
8.00 to 9.22

Provide one value: measured pIC50 of "Cc1c(COc2cc(OCc3cccc(C#N)c3)c(CN[C@](C)(CO)C(=O)O)cc2Br)cccc1-c1ccc2c(c1)OCCO2"
8.00 to 9.22

Provide one value: measured pIC50 of "N#Cc1cccc(COc2cc(OCc3cccc(-c4ccc5c(c4)OCCO5)c3C#N)c(Br)cc2CN2CCCC[C@H]2C(=O)O)c1"
8.00 to 9.22

Provide one value: measured pIC50 of "Cc1cc(CN[C@@](C)(CO)C(=O)O)c(OCc2cncc(C#N)c2)cc1OCc1cccc(-c2ccc3c(c2)OCCO3)c1C#N"
8.00 to 9.22

Provide one value: measured pIC50 of "Cc1c(COc2cc(OCc3cncc(C#N)c3)c(CNCC(=O)O)cc2Cl)cccc1-c1ccc2c(c1)OCCO2"
8.00 to 9.22

Provide one value: measured pIC50 of "Cc1c(COc2cc(OCc3cccc(C#N)c3)c(CN[C@@H](Cc3cscn3)C(=O)O)cc2Cl)cccc1-c1ccc2c(c1)OCCO2"
8.00 to 9.22

Provide one value: measured pIC50 of "CC(=O)NCCNCc1ccc(OCc2cccc(-c3ccccc3)c2C)cc1OCc1cccnc1"
7.00 to 8.00

Provide one value: measured pIC50 of "COc1cc(OCc2cccc(-c3ccc4c(c3)OCCO4)c2C)cc(OCc2cccc(C#N)c2)c1CN[C@@](C)(CO)C(=O)O"
8.00 to 9.22

Provide one value: measured pIC50 of "Cc1c(COc2cc(OCc3cncc(C#N)c3)c(CN[C@H](CO)C(=O)O)cc2F)cccc1-c1ccc2c(c1)OCCO2"
8.00 to 9.22

----------
biological target: PD-1/PD-L1 interaction (PD-1-Ig / PD-L1-His) (Homo sapiens (Human), UniProt Q9NZQ7); experiment: PD-1/PD-L1 Homogenous Time-Resolved Fluorescence (HTRF) binding assay; conditions: PD-1/PD-L1 HTRF binding assay; value given as range class; read-out: Range or IC50
Sequence (Q9NZQ7 other isoform, or with tags, fused parts or gaps): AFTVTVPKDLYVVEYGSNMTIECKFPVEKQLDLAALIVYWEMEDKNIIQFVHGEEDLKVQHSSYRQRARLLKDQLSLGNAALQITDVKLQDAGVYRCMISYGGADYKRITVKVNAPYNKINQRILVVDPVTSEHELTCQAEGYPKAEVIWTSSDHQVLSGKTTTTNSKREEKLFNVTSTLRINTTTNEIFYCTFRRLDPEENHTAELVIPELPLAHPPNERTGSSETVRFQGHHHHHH
outcome.measure: IC50

Provide one value: measured IC50 of Cc1c(COc2cc(OCc3cccc(C#N)c3)c(CNC(CO)(C(=O)O)C(C)C)cc2Cl)cccc1-c1ccc2c(c1)OCCO2 (stereo not shown)
0.6 to 10 nM

Provide one value: measured IC50 of "Cc1c(COc2cc(OCc3cccc(C#N)c3)c(CN[C@@H](Cn3ncnn3)C(=O)O)cc2Cl)cccc1-c1ccc2c(c1)OCCO2"
100 to 20000 nM

Provide one value: measured IC50 of Cc1c(COc2cc(OCc3cccc(C#N)c3)c(CN3CCOCC3C(=O)O)cc2Cl)cccc1-c1ccc2c(c1)OCCO2 (stereo not shown)
10 to 100 nM

Provide one value: measured IC50 of "COC(=O)c1ccc(COc2cc(OCc3cccc(-c4ccccc4)c3C)ccc2CNCCNC(C)=O)cc1"
100 to 20000 nM

Provide one value: measured IC50 of "COC(=O)Cc1cccc(COc2cc(OCc3cccc(-c4ccccc4)c3C)ccc2CNCCNC(C)=O)c1"
100 to 20000 nM

Provide one value: measured IC50 of "COc1cc(COc2cc(OCc3cccc(-c4ccccc4)c3C)ccc2CNCCNC(C)=O)ccc1F"
100 to 20000 nM

Provide one value: measured IC50 of "Cc1c(COc2ccc(CN3CCCC[C@H]3C(=O)O)c(OCc3ccc(F)c(C#N)c3)c2)cccc1-c1ccccc1"
0.6 to 10 nM

----------
target: PD-1/PD-L1 interaction (PD-1-Ig / PD-L1-His) (Homo sapiens (Human)); experiment: PD-1/PD-L1 Homogenous Time-Resolved Fluorescence (HTRF) binding assay; details: PD-1/PD-L1 HTRF binding assay; numeric value; read-out: Range or IC50
outcome.measure: IC50

Provide one value: measured IC50 of "Cc1cc(CN2CCCC[C@@H]2C(=O)O)c(OCc2cncc(C#N)c2)cc1OCc1cccc(-c2ccc3c(c2)OCCO3)c1C"
1.88 nM

Provide one value: measured IC50 of "CC(=O)NCCNCc1cc(C)c(OCc2cccc(-c3ccc4c(c3)OCCO4)c2C#N)cc1OCc1cncc(C#N)c1"
0.92 nM

Provide one value: measured IC50 of Cc1c(COc2cc(OCc3cccc(C#N)c3)c(CNC(C(=O)O)C(C)(C)O)cc2Cl)cccc1-c1ccc2c(c1)OCCO2 (stereo not shown)
12.7 nM

Provide one value: measured IC50 of "Cc1c(COc2cc(OCc3cccc(C#N)c3)c(CN[C@H](CCO)C(=O)O)cc2Cl)cccc1-c1ccc2c(c1)OCCO2"
2.71 nM

Provide one value: measured IC50 of "Cc1c(COc2cc(OCc3cncc(C#N)c3)c(CNC[C@@H](O)CC(=O)O)cc2Cl)cccc1-c1ccc2c(c1)OCCO2"
1.19 nM

Provide one value: measured IC50 of "CC(=O)NCCNCc1ccc(OCc2cccc(-c3ccccc3)c2C)cc1OCc1cc(C#N)ccc1F"
81.2 nM

Provide one value: measured IC50 of "CC(=O)NCCNCc1ccc(OCc2cccc(-c3ccccc3)c2C)cc1OCc1ccc(F)c(C)c1"
624 nM

----------
target: PD-1/PD-L1 interaction (PD-1-Ig / PD-L1-His) (Homo sapiens (Human), UniProt Q9NZQ7); assay: PD-1/PD-L1 Homogenous Time-Resolved Fluorescence (HTRF) binding assay; details: PD-1/PD-L1 HTRF binding assay; value given as range class; read-out: Range or IC50
outcome.measure: IC50

Provide one value: measured IC50 of CC(=O)NCCNCc1cc(C)c(OCc2cccc(-c3ccc4c(c3)OCCO4)c2C)cc1OCc1cccnc1 [Example 1276]
0.6 to 10 nM

Provide one value: measured IC50 of CC(=O)NCCNCc1ccc(OCc2cccc(-c3ccccc3)c2C)cc1OCc1ccc(C)cc1 [Example 1047]
100 to 20000 nM

Provide one value: measured IC50 of Cc1c(COc2ccc(CN[C@H](CO)C(=O)O)c(OCCCCC#N)c2)cccc1-c1ccccc1 [Example 1143]
0.6 to 10 nM

Provide one value: measured IC50 of CC(=O)NCCNCc1ccc(OCc2cccc(-c3ccccc3)c2C)cc1OCc1ccc(C(F)(F)F)cc1 [Example 1052]
100 to 20000 nM

Provide one value: measured IC50 of CC(=O)NCCNCc1ccc(OCc2cccc(-c3ccccc3)c2C)cc1OCc1cccc(-n2cccc2)c1 [Example 1112]
100 to 20000 nM

Provide one value: measured IC50 of COC(=O)c1cccc(COc2cc(OCc3cccc(-c4ccccc4)c3C)ccc2CNCCNC(C)=O)c1 [Example 1034]
100 to 20000 nM

Provide one value: measured IC50 of CC(=O)NCCNCc1ccc(OCc2cccc(-c3ccccc3)c2C)cc1OCc1ccc(F)c(C#N)c1 [Example 1114]
10 to 100 nM

Provide one value: measured IC50 of Cc1c(COc2cc(OCc3cccc(C#N)c3)c(CN3CC[C@@H](O)[C@H]3C(=O)O)cc2Cl)cccc1-c1ccc2c(c1)OCCO2 [Example 1204]
0.6 to 10 nM

Provide one value: measured IC50 of CC(=O)NCCNCc1cc(Br)c(OCc2cccc(-c3ccc4c(c3)OCCO4)c2C)cc1OCc1cncc(C#N)c1 [Example 1317]
0.6 to 10 nM

Provide one value: measured IC50 of Cc1cc(CN[C@@](C)(CO)C(=O)O)c(OCCCCC#N)cc1OCc1cccc(-c2ccc3c(c2)OCCO3)c1C [Example 1297]
0.6 to 10 nM

Provide one value: measured IC50 of Cc1cc(OCc2cccc(-c3ccc4c(c3)OCCO4)c2C)cc(OCc2cncc(C#N)c2)c1CN1CCCC[C@H]1C(=O)O [Example 1009]
0.6 to 10 nM

Provide one value: measured IC50 of Cc1cc(CN[C@@](C)(CO)C(=O)O)c(OCc2cccnc2)cc1OCc1cccc(-c2ccc3c(c2)OCCO3)c1C [Example 1280]
0.6 to 10 nM

Provide one value: measured IC50 of CC(=O)NCCNCc1ccc(OCc2cccc(-c3ccccc3)c2C)cc1OCc1ccc2c(cnn2C2CCCCO2)c1 (stereo not drawn) [Example 1099]
100 to 20000 nM

Provide one value: measured IC50 of Cc1c(COc2cc(OCc3cncc(C#N)c3)c(CN[C@H](CC(=O)O)C(=O)O)cc2Cl)cccc1-c1ccc2c(c1)OCCO2 [Example 3025]
0.6 to 10 nM

Provide one value: measured IC50 of COc1cc(OCc2cccc(-c3ccc4c(c3)OCCO4)c2C)cc(OCc2cccc(C#N)c2)c1CN[C@H](CO)C(=O)O [Example 1139]
0.6 to 10 nM

Provide one value: measured IC50 of Cc1c(COc2ccc(CN[C@H](CO)C(=O)O)c(OCc3cccc(C#N)c3)c2Cl)cccc1-c1ccccc1 [Example 1231]
100 to 20000 nM

Provide one value: measured IC50 of Cc1c(COc2ccc(CN3CCCC[C@H]3C(=O)O)c(OCc3cc(C#N)ccn3)c2)cccc1-c1ccc2c(c1)OCCO2 [Example 1132]
10 to 100 nM

Provide one value: measured IC50 of Cc1c(COc2cc(OCc3cncc(C#N)c3)c(CN[C@](C)(CO)C(=O)O)cc2F)cccc1-c1ccc2c(c1)OCCO2 [Example 3001]
0.6 to 10 nM

Provide one value: measured IC50 of Cc1c(COc2cc(OCc3cccc(C#N)c3)c(CNC(Cc3ccccc3O)C(=O)O)cc2Cl)cccc1-c1ccc2c(c1)OCCO2 (stereo not drawn) [Example 1181]
10 to 100 nM

Provide one value: measured IC50 of COc1cccc(COc2cc(OCc3cccc(-c4ccccc4)c3C)ccc2CNCCNC(C)=O)c1 [Example 1086]
100 to 20000 nM

Provide one value: measured IC50 of Cc1c(COc2cc(OCc3cccc(C#N)c3)c(CN[C@@H](Cc3cccc(C#N)c3)C(=O)O)cc2Cl)cccc1-c1ccc2c(c1)OCCO2 [Example 1217]
10 to 100 nM

Provide one value: measured IC50 of Cc1cc(OCc2cccc(-c3ccc4c(c3)OCCO4)c2C)cc(OCc2cncc(C#N)c2)c1CNC[C@@H](O)CC(=O)O [Example 1006]
0.6 to 10 nM

Provide one value: measured IC50 of Cc1c(COc2cc(OCc3cncc(C#N)c3)c(CN3CCCC[C@H]3C(=O)NS(=O)(=O)N3CCN(C)CC3)cc2Cl)cccc1-c1ccc2c(c1)OCCO2 [Example 1262]
10 to 100 nM

Provide one value: measured IC50 of CC(=O)NCCNCc1cc(Cl)c(OCc2cccc(-c3ccc4c(c3)OCCO4)c2C)cc1OCc1cccc(C#N)c1 [Example 1247]
0.6 to 10 nM

Provide one value: measured IC50 of Cc1c(COc2cc(OCc3cncc(C#N)c3)c(CN[C@@H](CCN)C(=O)O)cc2Cl)cccc1-c1ccc2c(c1)OCCO2 [Example 2005]
10 to 100 nM

Provide one value: measured IC50 of N#Cc1cccc(COc2cc(OCc3cccc(-c4ccc5c(c4)OCCO5)c3Cl)ccc2CN[C@H](CO)C(=O)O)c1 [Example 1146]
0.6 to 10 nM

Provide one value: measured IC50 of COc1cc(COc2cc(OCc3cccc(-c4ccc5c(c4)OCCO5)c3C)c(Cl)cc2CN2CCCC[C@H]2C(=O)O)ccn1 [Example 3017]
10 to 100 nM

Data provenance: patent US9850225B2
